Test system: MOLT-4 leukemia
Assay: NCI-60 one-dose screen, 48 h (100 = growth as untreated, 0 = no growth, -100 = all killed)
Conditions: 10 µM unless noted
Compounds without any hit were thinned out: in the full panel of roughly 83,000, 20% have a hit. Calls of active or inactive are those of the source. How the source made its calls: active means growth percent below 10; inactive means the rest.
quantity: growth

As a guide, the following entries are already answered.
Cc1ccc2c(n1)C[C@H](C(C)(C)O)CC[C@H]2C | 103% (inactive)
CCN(CC)CCCC(Nc1c2ccc(Cl)cc2nc2ccc(OC)cc12)c1ccncc1 (stereo not given) | 18.3% (inactive)
COc1ccc(NC(=O)c2sc3nc(C)c(C(=O)c4ccccc4)cc3c2N)cc1 | 88.5% (inactive)

Q) Request body: readout growth, system MOLT-4 leukemia, query O=C(CN1C(=O)NC2NC(=O)NC21)N/N=C/c1cccc([N+](=O)[O-])c1 (stereo not given) . Return the value.
A) 106% (inactive)

Q) Check CCCNNC(=O)c1ccc(CNC(=O)/C=C/c2ccccc2)cc1 too.
A) 15.3% [2.5 µM] (inactive)

Q) Item: COc1cc2nc3cc([N+](=O)[O-])ccc3c(NCCCNCCO)c2cc1OC
A) 2.59% (active)

Q) Then Cc1[nH]c(C(=O)Nc2ccc(C(N)=O)cc2OC(C)C)c(Cl)c1Cl ?
A) 89.2% (inactive)

Q) Follow-up item: C1=C2CCCC3=Cc4ccccc4OC23Oc2ccccc21
A) 17.5% (inactive)

Q) // same read-out, input: Cc1[nH]c(C2CC(c3ccc(C(F)(F)F)c(F)c3)=NN2C)c(C)c1C(=O)NCC(F)(F)F (stereo not given)
A) 72.9% (inactive)

Q) Now try N#Cc1nn(-c2ccccn2)c(N)c1C#N .
A) 92.9% (inactive)
